Assay: plasmodial surface anion channel blockers, osmotic lysis – cell-based, P. falciparum Indochina, OD700, 1 h, primary screen (AID 1154)
Details: P. falciparum Indochina infected RBC osmotic lysis, higher = more signal, called active from +8 up or from −8 down
Give y when the value for z-score is at least 0.9. Give n when it is less.

Answered examples (10):
| COMPOUND | CLASSIFICATION |
| --- | --- |
| C#CCNCc1ccccc1 | n |
| O=C1C2C=CC(C(O)c3ccc4c(c3)OCO4)N(Nc3ccc([N+](=O)[O-])cc3)C2C(=O)N1c1ccccc1 (stereo not given) | y |
| COC(=O)c1c(CC[C@@H](CO)NC(=O)NCCc2c[nH]c3ccccc23)oc(C(=O)Cc2ccccc2)c1C(=O)OC | y |
| C=CCOC(=O)[C@H]1[C@@H]2C(=O)O[C@@H](c3ccccc3)[C@@H](c3ccccc3)N2[C@@H](c2ccc(OCCOC(=O)[C@H]3C[C@H]4C(=O)N[C@@H](CCCCN(C)C)C(=O)N4[C@H]3c3cccc(OCCO)c3)cc2)[C@]12C(=O)Nc1ccc(I)cc12 | n |
| COCCOC(=O)N1C(=O)[C@@]2(c3ccccc31)[C@H](C(N)=O)[C@H]1C(=O)O[C@H](c3ccccc3)[C@H](c3ccccc3)N1[C@@H]2c1ccc(O)cc1 | n |
| CC(C)=CCCC(C)=CC(O)C1C=CC2C(=O)N(c3ccccc3)C(=O)C2N1Nc1ccc(C(C)C)cc1 (stereo not given) | y |
| COC(=O)[C@@]1(Cc2ccccc2)[C@H]2c3cc(C(=O)N(C)C)n(Cc4ccc(OC)c(OC)c4)c3C[C@H]2CN1C(=O)c1ccccc1 | y |
| COc1ccc(-c2cc3c(c(Cc4ccccc4)n2)[Si](C(C)C)(C(C)C)OC3)cn1 | y |
| O=C1C2C=CC(C(O)C=Cc3ccc([N+](=O)[O-])cc3)N(Nc3ccccc3F)C2C(=O)N1c1ccccc1 (stereo not given) | y |
| [N-]=[N+]=NCc1ccccc1C[C@@]1(C(=O)NCC(O)CO)N=C(c2ccc(OCCCO)cc2)O[C@@H]1c1ccccc1 (stereo not given in full) | y |

Does the compound "CCOC(=O)C1=C[C@@H](C(C)C)N(S(=O)(=O)c2ccc(C)cc2)[C@H]1c1ccccc1F" have recorded z-score that is 0.9 or more?
n

Similarly, OB1C=CCC(CCc2ccccc2)O1 (stereo not given) ?
n

Let us now turn to "COc1ccc([Si](C)(C)[C@@H]2[C@@H](CCO)O[C@]3(C(=O)N(Cc4cccc(N5CCOC5=O)c4)c4ccccc43)[C@H]2C)cc1"
y

Follow-up entry: "COC(=O)c1c(CC[C@@H](CO)NC(=O)N[C@@H](Cc2ccccc2)Cn2cc(-c3ccccn3)nn2)oc(C(=O)N2CCOCC2)c1C(=O)OC"
n

---

Test system: Noggin (protein binding on small-molecule microarray)
Experiment: small molecules binding Noggin protein – biochemical, 635/667 nm fluorescence, primary screen (AID 1095);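 further: score merges 667 nm feature fluorescence with signal to noise over triplicate slides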
Settings: 635 nm fluorescence, higher = more signal
Label condition met when composite z-score >= 0.7; otherwise condition not met.

| COMPOUND | CLASSIFICATION |
| --- | --- |
| NC(=O)[C@@]1(Cc2ccccc2)N=C(c2ccc(OCCCO)cc2)O[C@H]1c1ccccc1 | condition not met |

For the next question, use this compound.
Hi, just wondering whether O=C1C2C=CC(C(O)COCc3ccccc3)N(Nc3ccc([N+](=O)[O-])cc3)C2C(=O)N1c1ccccc1 (stereo not drawn) shows composite z-score of 0.7 or higher.
condition not met
